EC2 (concentration for 2-fold luciferase induction): recorded values
# target: OR7D4 (Homo sapiens, UniProt Q8NG98, D296E/E302K/G299D)
# Construct: Improved functional expression of modified OR-genes containing the truncated, optimized C-terminus; expressed in transfected cells
# Sequence (Q8NG98 with tags, fused parts or gaps D296E/G299D/E302K): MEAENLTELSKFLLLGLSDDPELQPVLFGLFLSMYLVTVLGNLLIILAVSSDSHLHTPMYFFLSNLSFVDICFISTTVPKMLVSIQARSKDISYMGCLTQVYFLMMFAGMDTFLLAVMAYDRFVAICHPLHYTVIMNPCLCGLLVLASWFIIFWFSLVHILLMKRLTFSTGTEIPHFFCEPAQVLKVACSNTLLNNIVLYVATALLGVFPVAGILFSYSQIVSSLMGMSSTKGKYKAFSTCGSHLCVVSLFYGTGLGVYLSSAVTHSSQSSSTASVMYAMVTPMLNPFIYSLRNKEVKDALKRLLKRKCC
# measurementProtocol: CRE-luciferase assay, HEK cells expressing OR7D4 (wild-type / modified C-terminus)
# Assay type: cell-based
# reportedConditions: OR7D4 variant, Androstenone
quantityName: EC2 (concentration for 2-fold luciferase induction) (µM)

substance="SEQ ID NO: 304 (RNRDVRKALKRLLGRRCC; source 1..18: note = C-terminal domain sequence)" result=0.006
substance="SEQ ID NO: 286 (RNRDVKKALRKLIGKRCC; source 1..18: note = C-terminal domain sequence)" result=0.003
substance="SEQ ID NO: 297 (RNRDVRKALKRLLKRKCC; source 1..18: note = C-terminal domain sequence)" result=0.005
substance="SEQ ID NO: 295 (RNRELKKALRRLLRRRCC; source 1..18: note = C-terminal domain sequence)" result=0.033
substance="SEQ ID NO: 255 (RNREVKKAIHKLIGRKCC; source 1..18: note = C-terminal domain sequence)" result=0.010
substance="SEQ ID NO: 287 (RNREVKKAVKKLIRRKCC; source 1..18: note = C-terminal domain sequence)" result=0.012
substance="SEQ ID NO: 259 (RNRDMKKAVHKLFGKRCC; source 1..18: note = C-terminal domain sequence)" result=0.020
substance="SEQ ID NO: 264 (RNKDIKKAVKKLIKKKCC; source 1..18: note = C-terminal domain sequence)" result=0.048
substance="SEQ ID NO: 256 (RNREVRKAVHRLFKRKCC; source 1..18: note = C-terminal domain sequence)" result=0.004
substance="SEQ ID NO: 302 (RNREVRKAVRKLFRRKCC; source 1..18: note = C-terminal domain sequence)" result=0.014
substance="SEQ ID NO: 266 (RNKELRKAVRKIIKKKCC; source 1..18: note = C-terminal domain sequence)" result=0.041
substance="SEQ ID NO: 273 (RNRDVRKAIKKLIRKRCC; source 1..18: note = C-terminal domain sequence)" result=0.005
substance="SEQ ID NO: 260 (RNKELRKALHKLLGRKCC; source 1..18: note = C-terminal domain sequence)" result=0.043
substance="SEQ ID NO: 305 (RNKDLKKAVKKLFGRKCC; source 1..18: note = C-terminal domain sequence)" result=0.131
